Attribute: ELISA assay #1 EC50
Tested System: human LAP-TGFβ1 expressed on P3U1 cells (human, UniProt P01137 30-390)
Sequence (P01137 30-390): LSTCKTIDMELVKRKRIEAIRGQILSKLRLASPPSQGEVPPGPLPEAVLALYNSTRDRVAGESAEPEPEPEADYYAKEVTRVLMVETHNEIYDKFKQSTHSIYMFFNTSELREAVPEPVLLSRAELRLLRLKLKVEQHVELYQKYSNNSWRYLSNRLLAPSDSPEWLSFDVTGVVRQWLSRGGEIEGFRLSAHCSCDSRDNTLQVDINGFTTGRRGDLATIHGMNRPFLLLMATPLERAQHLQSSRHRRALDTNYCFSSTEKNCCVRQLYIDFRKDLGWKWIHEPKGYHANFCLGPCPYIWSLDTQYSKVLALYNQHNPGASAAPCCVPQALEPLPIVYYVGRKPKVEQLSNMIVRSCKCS
Assay Overview: cell-based or functional assay
Provide only the numeric value, understood in µg/mL.

18BLM (antibody, human IgG1, kappa, L234A L235A, V domains shown, IgG1 L234A L235A D265S/kappa; also called 81BLH; 54BMD) VH: EVQLVQSGAEVKKPGASVKVSCKASGYTFTSYDMHWVRQAPGQGLEWMGRIDPQSGGIKYAQKFQGRATLTVDTSTSTAYMELSRLRSDDTAVYYCARYDHGGYFDVWGQGTLVTVSS VL: DIQMTQSPSSLSASVGDRVTITCRASQDIYNYLNWYQQKPGKAVKLLIYYTSRLETGVPSRFSGSGSGTDYTLTISSLQPEDFATYFCQQGDTLPWTFGQGTKLEIKR :: 0.0982

Now look at this one.
Sample 11BLM (antibody, human IgG1, kappa, L234A L235A, V domains shown, IgG1 L234A L235A D265S/kappa; also called 74BLH; 47BMD) VH: EVQLVQSGAEVKKPGASVKVSCKASGYTFTSYDMHWVRQAPGQGLEWMGRIDPQSGGIRYAQKFQGRATLTVDTSTSTAYMELSRLRSDDTAVYYCARWDYGGYFDVWGQGTLVTVSS VL: DIQMTQSPSSLSASVGDRVTITCRASQDIYNYLNWYQQKPGKAVKLLIYYTSVLETGVPSRFSGSGSGTDYTLTISSLQPEDFATYFCQQGDTLPWTFGQGTKLEIKR ; ELISA assay #1 EC50 observed: 0.0539
